Some compounds, each annotated with its measured combination Emax.
System: U-118-MG (Low Grade Glioma)
ASSAY_NAME: combination Emax (second highest fraction inhibited in the dose matrix, 72 h); higher = more inhibition; extreme values may be limits of the assay
The reply should be a number, written without any unit.

Consider the reported combination Emax for these compounds:
{"COMPOUND": "CC1(C)CCC(CN2CCN(c3ccc(C(=O)NS(=O)(=O)c4ccc(NCC5CCOCC5)c([N+](=O)[O-])c4)c(Oc4cnc5[nH]ccc5c4)c3)CC2)=C(c2ccc(Cl)cc2)C1 [Venetoclax] + C1CN(CCC1(C(=O)N[C@@H](CCO)C2=CC=C(C=C2)Cl)N)C3=NC=NC4=C3C=CN4 [Capivasertib] (first compound max 1 µM, 7x7, partner max 3 µM)", "combination Emax": 0.4}
{"COMPOUND": "Cc1c2c(nn1C)CSCc1cc(n(C)n1)CSc1cc(c3ccccc3c1)OCCCc1c(C(=O)O)n(C)c3c-2c(Cl)ccc13 [AZD5991] + C[C@@H](Nc1cc(F)cc(F)c1)c1cc(C(=O)N(C)C)cc2c(=O)cc(N3CCOCC3)oc12 [AZD8186] (first compound max 1 µM, 7x7, partner max 3 µM)", "combination Emax": 0.45}

Consider now this further compound.
Query: State its combination Emax on U-118-MG (Low Grade Glioma): COc1cccc(OCCCN)c1-c1cc(Nc2cnc(C#N)cn2)n[nH]1 [Prexasertib] + CN(C)CCCOc1ccc(-c2ccc3ncc4c(c3c2)n(C2CCOCC2)c(=O)n4C)cn1 [AZD0156] (first compound max 1 µM, 7x7, partner max 1 µM)
Result: 0.723

* * *

Test system: NOMO-1 (Acute Myeloid Leukemia)
ASSAY_NAME: Bliss excess, mean over the matrix (fraction); higher = more synergy
Some compounds, each annotated with its measured Bliss excess.

{"COMPOUND": "CN(C)CCCOc1ccc(-c2ccc3ncc4c(c3c2)n(C2CCOCC2)c(=O)n4C)cn1 [AZD0156] + C[C@@H]1COCCN1C2=NC(=NC(=C2)C3(CC3)[S@](=N)(=O)C)C4=C5C=CNC5=NC=C4 [AZD6738] (first compound max 1 µM, 7x7, partner max 10 µM)", "Bliss excess": 0.0095}

Consider now this further compound.
Query: Look up Bliss excess: NC1(C(=O)N[C@@H](CCO)c2ccc(Cl)cc2)CCN(c2ncnc3[nH]ccc23)CC1 [Capivasertib] + CC(C)n1c(=O)n(C)c2cnc3cc(F)c(-c4ccc(OCCCN5CCCCC5)nc4)cc3c21 [AZD1390] (first compound max 10 µM, 7x7, partner max 0.3 µM)
Result: -0.0537

* * *

Some molecules, each annotated with its measured Bliss excess.
Tested on: HCC38 (Breast Carcinoma)
ASSAY_NAME: Bliss excess, mean over the matrix (fraction); higher = more synergy
The reply should be a number, written without any unit.

{"MOLECULE": "CN(CCO)CC[C@H](CSc1ccccc1)Nc1ccc(S(=O)(=O)NC(=O)c2ccc(N3CCC([C@@H](O)c4ccccc4-c4ccc(Cl)cc4)CC3)cc2)cc1S(=O)(=O)C(F)(F)F [AZD4320] + C[C@@H]1COCCN1C2=NC(=NC(=C2)C3(CC3)[S@](=N)(=O)C)C4=C5C=CNC5=NC=C4 [AZD6738] (first compound max 1 µM, 7x7, partner max 10 µM)", "ASSAY_TARGET": "HCC38 (Breast Carcinoma)", "ENDPOINT": "Bliss excess", "NUMBER": 0.0306}
{"MOLECULE": "CN(C)CCCOc1ccc(-c2ccc3ncc4c(c3c2)n(C2CCOCC2)c(=O)n4C)cn1 [AZD0156] + C=CCn1c(=O)c2cnc(Nc3ccc(N4CCN(C)CC4)cc3)nc2n1-c1cccc(C(C)(C)O)n1 [AZD1775] (first compound max 1 µM, partner max 1 µM)", "ASSAY_TARGET": "HCC38 (Breast Carcinoma)", "ENDPOINT": "Bliss excess", "NUMBER": -0.0963}

Consider now this further molecule.
Query: Look up Bliss excess: Cc1cc2ncnn2cc1Nc1ncc2c(n1)n(C1CCOCC1)c(=O)n2C [AZD7648] + CCN(CCO)CCCOc1ccc2c(Nc3cc(CC(=O)Nc4cccc(F)c4)[nH]n3)ncnc2c1 [AZD2811] (first compound max 10 µM, 7x7, partner max 1 µM)
Result: -0.0383

* * *

Tested on: MCF7 (Breast Carcinoma)
ASSAY_NAME: combination Emax (second highest fraction inhibited in the dose matrix, 72 h); higher = more inhibition; extreme values may be limits of the assay
ENDPOINT: combination Emax
The reply should be a number, written without any unit.

Query: Look up combination Emax: COc1cccc(OCCCN)c1-c1cc(Nc2cnc(C#N)cn2)n[nH]1 [Prexasertib] + Cc1cc2ncnn2cc1Nc1ncc2c(n1)n(C1CCOCC1)c(=O)n2C [AZD7648] (first compound max 1 µM, 7x7, partner max 10 µM)
Result: 0.682

Query: Look up combination Emax: CC1(C)CCC(CN2CCN(c3ccc(C(=O)NS(=O)(=O)c4ccc(NCC5CCOCC5)c([N+](=O)[O-])c4)c(Oc4cnc5[nH]ccc5c4)c3)CC2)=C(c2ccc(Cl)cc2)C1 [Venetoclax] + CN(C)CCCOc1ccc(-c2ccc3ncc4c(c3c2)n(C2CCOCC2)c(=O)n4C)cn1 [AZD0156] (first compound max 1 µM, 7x7, partner max 1 µM)
Result: 0.242

* * *

Some compounds, each annotated with its measured Bliss excess.
Test system: WSU-DLCL2 (B-Cell Non-Hodgkin's Lymphoma)
ASSAY_NAME: Bliss excess, mean over the matrix (fraction); higher = more synergy

Consider the reported Bliss excess for these compounds:
{"COMPOUND": "COc1cccc2c1C(=O)c1c(O)c3c(c(O)c1C2=O)C[C@@](O)(C(=O)CO)C[C@@H]3O[C@H]1C[C@H](N)[C@H](O)[C@H](C)O1 [Doxorubicin] + Cc1cc2ncnn2cc1Nc1ncc2c(n1)n(C1CCOCC1)c(=O)n2C [AZD7648] (first compound max 1 µM, 7x7, partner max 10 µM)", "Bliss excess": 0.101}
{"COMPOUND": "CN(CCO)CC[C@H](CSc1ccccc1)Nc1ccc(S(=O)(=O)NC(=O)c2ccc(N3CCC([C@@H](O)c4ccccc4-c4ccc(Cl)cc4)CC3)cc2)cc1S(=O)(=O)C(F)(F)F [AZD4320] + CS(=O)(=O)CCNCc1ccc(-c2ccc3ncnc(Nc4ccc(OCc5cccc(F)c5)c(Cl)c4)c3c2)o1 [Lapatinib] (first compound max 1 µM, 7x7, partner max 10 µM)", "Bliss excess": 0.203}

Consider now this further compound.
Query: Look up Bliss excess: N#Cc1cnc(Nc2cc(NC[C@H]3CNCCO3)c(C(F)(F)F)cn2)cn1 [SRA737] + C=CCn1c(=O)c2cnc(Nc3ccc(N4CCN(C)CC4)cc3)nc2n1-c1cccc(C(C)(C)O)n1 [AZD1775] (first compound max 10 µM, partner max 1 µM)
Result: 0.205

* * *

Tested on: D-283MED (Other Solid Carcinomas)
ASSAY_NAME: Bliss excess, mean over the matrix (fraction); higher = more synergy
ENDPOINT: Bliss excess
The reply should be a number, written without any unit.

Consider the reported Bliss excess for these compounds:
{"COMPOUND": "CCc1c2c(nc3ccc(O)cc13)-c1cc3c(c(=O)n1C2)COC(=O)[C@]3(O)CC [SN-38] + O=C(c1cc(Cc2n[nH]c(=O)c3ccccc23)ccc1F)N1CCN(C(=O)C2CC2)CC1 [Olaparib] (first compound max 0.3 µM, 7x7, partner max 10 µM)", "ENDPOINT": "Bliss excess", "NUMBER": 0.0174}
{"COMPOUND": "CC1(C)CCC(CN2CCN(c3ccc(C(=O)NS(=O)(=O)c4ccc(NCC5CCOCC5)c([N+](=O)[O-])c4)c(Oc4cnc5[nH]ccc5c4)c3)CC2)=C(c2ccc(Cl)cc2)C1 [Venetoclax] + CN(C)CCCOc1ccc(-c2ccc3ncc4c(c3c2)n(C2CCOCC2)c(=O)n4C)cn1 [AZD0156] (first compound max 1 µM, 7x7, partner max 1 µM)", "ENDPOINT": "Bliss excess", "NUMBER": 0.0189}

Consider now this further compound.
Query: Look up Bliss excess: C[C@@H](c1ccc2nccn2c1)n1nnc2ncc(-c3cnn(C)c3)nc21 [Savolitinib] + Cc1c2c(nn1C)CSCc1cc(n(C)n1)CSc1cc(c3ccccc3c1)OCCCc1c(C(=O)O)n(C)c3c-2c(Cl)ccc13 [AZD5991] (first compound max 1 µM, 7x7, partner max 1 µM)
Result: 0.0649

* * *

Test system: HCC-827 (Lung Adenocarcinoma)
ASSAY_NAME: combination Emax (second highest fraction inhibited in the dose matrix, 72 h); higher = more inhibition; extreme values may be limits of the assay
ENDPOINT: combination Emax
The reply should be a number, written without any unit.

Consider the reported combination Emax for these compounds:
{"COMPOUND": "CCN(CCO)CCCOc1ccc2c(Nc3cc(CC(=O)Nc4cccc(F)c4)[nH]n3)ncnc2c1 [AZD2811] + C=CCn1c(=O)c2cnc(Nc3ccc(N4CCN(C)CC4)cc3)nc2n1-c1cccc(C(C)(C)O)n1 [AZD1775] (first compound max 1 µM, partner max 1 µM)", "ASSAY_TARGET": "HCC-827 (Lung Adenocarcinoma)", "combination Emax": 0.392}
{"COMPOUND": "Cc1cc2ncnn2cc1Nc1ncc2c(n1)n(C1CCOCC1)c(=O)n2C [AZD7648] + CN(C)CCCOc1ccc(-c2ccc3ncc4c(c3c2)n(C2CCOCC2)c(=O)n4C)cn1 [AZD0156] (first compound max 10 µM, 7x7, partner max 1 µM)", "ASSAY_TARGET": "HCC-827 (Lung Adenocarcinoma)", "combination Emax": 0.297}

Query: Look up combination Emax: Cc1c2c(nn1C)CSCc1cc(n(C)n1)CSc1cc(c3ccccc3c1)OCCCc1c(C(=O)O)n(C)c3c-2c(Cl)ccc13 [AZD5991] + CN(C)CCCOc1ccc(-c2ccc3ncc4c(c3c2)n(C2CCOCC2)c(=O)n4C)cn1 [AZD0156] (first compound max 1 µM, 7x7, partner max 1 µM)
Result: 0.345
